PROTOCOL NOTES: physchem
CONDITIONS: 4% aqueous hpcd
METRIC NAME: solubility at 84 h (µg/mL)
# number only, unit µg/mL dropped from output

Which solubility at 84 h value belongs to `O=C(O)CCCc1ccc(N(CCCl)CCCl)cc1` ? 1500

====

PROTOCOL NOTES: physchem
CONDITIONS: 15% aqueous hpcd
METRIC NAME: solubility at 3 h (µg/mL)
// units = µg/mL; emit number, no label

Look up solubility at 3 h for this molecule: `O=C(O)CCCc1ccc(N(CCCl)CCCl)cc1` 6360

====

PROTOCOL NOTES: Phase-solubility experiments in aqueous HPCD at 25±1°C
CONDITIONS: 50% w/w hpcd, pH 7.6
METRIC NAME: solubility (mg/mL)
Please reply with the bare figure in mg/mL and do not write the unit itself.

Please give the measured solubility for this compound: CN(Cc1cnc2nc(N)nc(N)c2n1)c1ccc(C(=O)N[C@@H](CCC(=O)O)C(=O)O)cc1 [Methotrexate] 10

====

PROTOCOL NOTES: physchem
Format: physicochemical
CONDITIONS: water, water solubility
METRIC NAME: solubility (µg/mL)
Report as a plain number; the unit µg/mL is understood.

Return reported solubility; argument: CN1C=CCC(C(=O)O[C@H]2CC[C@H]3[C@@H]4CCc5cc(O)ccc5[C@H]4CC[C@]23C)=C1 [Example E2-CDS] 0.2

====

Listed here: items and their measured solubility at 4 h.
PROTOCOL NOTES: physchem
CONDITIONS: 50% aqueous hpcd

Which solubility at 4 h value is on record for `O=C(O)CCCc1ccc(N(CCCl)CCCl)cc1` ? ~30 mg/mL

Note, next up: `N[C@@H](Cc1ccc(N(CCCl)CCCl)cc1)C(=O)O` ~21.9 mg/mL

====

PROTOCOL NOTES: Solubilizing effect of a 50% w/w solution of HPCD on steroids and CDS
CONDITIONS: 50% w/w aqueous hpcd
Description: An excess of E2-CDS was sonicated with an aqueous solution of the appropriate solubilizing agent for 30 minutes. The suspension was then centrifuged, filtered through 0.45 µm polyvinylidene difluoride (Millex-HV4, Millipore®) membranes and analyzed by HPLC. […] This latter value was calculated using the average molecular weight of the isomeric mixture determined by mass spectroscopy. […] For the CDS, the wavelength monitored was 360 nm while for estrogen 220 nm was used. […]
METRIC NAME: solubility (mg/mL)
Write it as a number; the unit mg/mL goes unstated.

Look over these answered cases.
# COMPOUND, UNIT ABBREVIATION, solubility
records = [
    ("CCC(=O)O[C@H]1CC[C@H]2[C@@H]3CCC4=CC(=O)CC[C@]4(C)[C@H]3CC[C@]12C [Testosterone 17-Propionate]", "mg/mL", 38),
    ("CN1C=CCC(C(=O)NCCc2ccc(OC(=O)C(C)(C)C)c(OC(=O)C(C)(C)C)c2)=C1", "mg/mL", 16),
    ("C[C@]12CC[C@H]3[C@@H](CCC4=CC(=O)CC[C@@]43C)[C@@H]1CC[C@@H]2O", "mg/mL", 38),
]

Consider the compound CN1C=CCC(C(=O)O[C@H]2CC[C@H]3[C@@H]4CCc5cc(O)ccc5[C@H]4CC[C@]23C)=C1 [Example E2-CDS] and give its measured solubility. 22
